experimentSummary: Flavin reductase assay with FMN and FAD
Type: biochemical
measurementContext: Table 6
Experimental: Assays were carried out spectrophotometrically at 37° C. in 10 mM Tris pH 7.5 using cytochrome c as terminal electron acceptor.
readout: Flavin reductase

[[record]]
molecule = "YodC: nitroreductase from B. subtilis, SEQ ID NO: 12 (coded for by SEQ ID NO: 11) (protein, listed as Bacillus subtilis) MTNTLDVLKARASVKEYDTNAPISKEELTELLDLATKAPSAWNLQHWHFTVFHSDESKAELLPVAYNQKQIVESSAVVAILGDLKANENGEEVYAELASQGYITDEIKQTLLGQINGAYQSEQFARDSAFLNASLAAMQLMIAAKAKGYDTCAIGGFNKEQFQKQFDISERYVPVMLISIGKAVKPAHQSNRLPLSKVSTWL"
observedresult = "Yes"

[[record]]
molecule = "C. jejuni NfnB: nitroreductase from Campylobacter jejuni, SEQ ID NO: 23 (protein, listed as Campylobacter jejuni) MKKELEIFSTRYSCRNFKNEKLKKEDLNSILEIARLSPSSLGLEPWKFIVVQDEKRKEELSKICNQQKHVKDCAALIIIISRLDFLDYFEEKLRKRDMSETEMQKRLDTYMPFLKSLNQEQKISYAREQAHIALASILYSANALNIASCTIGGFDKEKLDSYLSLDIQKERSSLVVALGYCNDKKNPQKNRFSFDEVVKFI"
observedresult = "Yes"

[[record]]
molecule = "P. gingivalis YwrO: nitroreductase from Porphyromonas gingivalis, SEQ ID NO: 25 (protein, listed as Porphyromonas gingivalis) MKKTLVIVVHPDLTKSVINKAWAKAIEGAATIHHLYEQYPNGQIDLAHEQALLEAHDRIVFQFPLYWYAAPYLLKKWMDEVFTEGWAYGAGGDKMEGKEICAAVSCGSPKSAFAEGAQQCHTLRSYLNVFDGIAAFLRARFTGYHACYDSYNPRLPEMLPANCEAYLRFIKGE"
observedresult = "No"

